Values from patent US8722661B2

- Test System: tankyrase 2 (His6-TNKS2) (Homo sapiens, UniProt Q9H2K2)
- Sequence (Q9H2K2 934-1166): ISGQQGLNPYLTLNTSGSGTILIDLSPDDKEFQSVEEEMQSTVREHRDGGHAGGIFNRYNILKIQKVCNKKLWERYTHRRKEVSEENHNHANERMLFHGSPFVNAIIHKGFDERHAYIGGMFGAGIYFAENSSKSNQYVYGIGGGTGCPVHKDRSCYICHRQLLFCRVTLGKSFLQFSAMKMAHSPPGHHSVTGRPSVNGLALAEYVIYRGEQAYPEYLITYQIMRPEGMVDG
Metric Name: IC50 (nM)

C=CCCn1ccc2c(=O)[nH]c(-c3ccc(C(F)(F)F)cc3)nc21 : 1360
Cn1ccc2c(=O)[nH]c(N3C[C@@H]4C[C@H]3CN4c3cccc(F)c3)nc21 : 6080
Cc1ccc(-c2nc3c(ccn3C)c(=O)[nH]2)cn1 : 235

P = Cn1ccc2c(=O)[nH]c(N3CCN(c4ccccn4)CC3)nc21
Q = Cn1ccc2c(=O)[nH]c(N3CCN(c4ccncc4)CC3)nc21
Data request: Name the one with the greater IC50 value, either P or Q as given. Let me know the label of the one you choose.
Data returned: Q

I = Cn1ccc2c(=O)[nH]c(N3CCN(c4ccc(Cl)c(Cl)c4)CC3)nc21
II = CC(=O)N1CCN(c2nc3c(ccn3C)c(=O)[nH]2)CC1
III = Cn1ccc2c(=O)[nH]c(N3CCN(c4cccc(F)c4)CC3)nc21
Data request: Arrange these compounds by their IC50, starting with the largest number. Sort and list the labels as requested.
Data returned: II, I, III
(II: 427 nM, I: 153 nM, III: 59 nM)

---

pIC50: −log10 of the molar value.
Observed pIC50 values for Tankyrase 1 (TNKS1) (Homo sapiens, UniProt O95271) are listed in what follows.
Metric Name: pIC50

Sample answers from the record:
Cn1ccc2c(=O)[nH]c(N3CCN(c4ncccc4C(F)(F)F)CC3)nc21 [Example 6] : 7.47
Cn1ccc2c(=O)[nH]c(N3CCN(c4ccccc4C(F)(F)F)CC3)nc21 [Example 23] : 7.55
O=c1[nH]c(-c2ccc(C(F)(F)F)cc2)nc2c1ccn2CO [Example 57] : 7.32

A = Cn1ccc2c(=O)[nH]c(N3CCN(c4ccc(Cl)cc4)CC3)nc21 [Example 3]
B = Cn1ccc2c(=O)[nH]c(N3CCN(c4ncccc4C#N)CC3)nc21 [Example 9]
C = C=CCn1ccc2c(=O)[nH]c(-c3ccc(C(F)(F)F)cc3)nc21 [Example 52]
Data request: Arrange these compounds by their pIC50, starting with the largest number. Sort and list the labels as requested.
Data returned: A, B, C
(A: 7.38, B: 7.15, C: 6.12)

---

Observed IC50 values for tankyrase 2 (His6-TNKS2) (Homo sapiens, UniProt Q9H2K2) are listed in what follows.
Metric Name: IC50 (nM)

Sample answers from the record:
Cn1ccc2c(=O)[nH]c(-c3ccc(C(F)(F)F)nc3)nc21 [Example 44] : 84
CCOC(=O)c1ccc(N2CCN(c3nc4c(ccn4C)c(=O)[nH]3)CC2)cc1 [Example 2] : 66
Cn1ccc2c(=O)[nH]c(N3CCN(c4cc(C(F)(F)F)ccn4)CC3)nc21 [Example 25] : 200

A = Cn1ccc2c(=O)[nH]c(-n3cccn3)nc21 [Example 56]
B = Cn1ccc2c(=O)[nH]c(N3CCN(c4nccnc4C#N)CC3)nc21 [Example 10]
Data request: Smaller IC50 value? Options are A and B Let me know the label of the one you choose.
Data returned: B
(B: 121 nM, A: 9160 nM)

---

Observed pIC50 values for PARP1 (His6-PARP1, full length) (Homo sapiens) are listed in what follows.
pIC50: −log10 of the molar value.
Metric Name: pIC50

1 = Cn1ccc2c(=O)[nH]c(N3CCN(c4ncccc4C#N)CC3)nc21 [Example 9]
2 = Cn1ccc2c(=O)[nH]c(N3CCN(c4ccccc4C#N)CC3)nc21 [Example 19]
Data request: Smaller pIC50 value? Options are 1 and 2 Let me know the label of the one you choose.
Data returned: 2
(2: 5.98, 1: 6.21)

I = Cn1ccc2c(=O)[nH]c(N3CCN(c4cccc(C#N)c4)CC3)nc21 [Example 21]
II = Cn1ccc2c(=O)[nH]c(-c3ccc(C(F)(F)F)nc3)nc21 [Example 44]
III = Cn1ccc2c(=O)[nH]c(N3CCN(c4ccccc4F)CC3)nc21 [Example 28]
IV = O=c1[nH]c(-c2ccc(C(F)(F)F)cc2)nc2c1ccn2CC(O)CO (stereo not drawn) [Example 54]
Data request: Arrange these compounds by their pIC50, starting with the largest number. Sort and list the labels as requested.
Data returned: II, I, III, IV
